Data provenance is patent CN114907478A.

- test-system: T1, hLAG-3-mFc融合蛋白 (human, UniProt P18627 23-450)
- T1 construct: range 1-450; no cleavage site is stated; also called hLAG-3-mFc重组蛋白; 人LAG-3-mFc重组蛋白; not shown: mouse Fc
- T1 sequence (looked up): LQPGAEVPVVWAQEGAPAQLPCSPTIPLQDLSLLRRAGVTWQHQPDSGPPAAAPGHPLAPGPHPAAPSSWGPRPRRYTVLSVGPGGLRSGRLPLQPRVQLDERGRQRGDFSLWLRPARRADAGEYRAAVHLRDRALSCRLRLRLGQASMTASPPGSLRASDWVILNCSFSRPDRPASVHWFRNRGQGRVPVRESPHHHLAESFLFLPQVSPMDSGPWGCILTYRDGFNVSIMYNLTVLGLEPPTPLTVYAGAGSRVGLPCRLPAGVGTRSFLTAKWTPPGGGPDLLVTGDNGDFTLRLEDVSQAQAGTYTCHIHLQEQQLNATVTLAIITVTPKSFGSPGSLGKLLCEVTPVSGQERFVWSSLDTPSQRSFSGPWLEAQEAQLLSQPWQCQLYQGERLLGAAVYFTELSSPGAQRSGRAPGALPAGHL
- measurement-description: BLI (ForteBio Octet QKe), antibody captured on AHC probe, hLAG-3-mFc 60 nM in solution, 1:1 fit
pKd: −log10 of the molar value.
Listing of entries alongside the reported pKd.

binder	pKd
ch7F1嵌合抗体 (antibody, human IgG4, V domains shown) VH: EVQLVESGPGLVAPSQSLSITCTVSGFSLTDYAVSWIRQPPGKGLEWLGVVWGDGSTNYHSALISRLIITRDNSKRQVFLKLNSLQTDDTATYYCAKGGGGMDYWGQGTSVTVSS VL: DIVLSQSPAILSASPGEKVTVTCRASSSVSYMHWFQQKPGSSPKPWIYATSNLASGVPVRFSGSGSGTSYSLTISRVEAEDAATYYCQHYNTNPPTWTFGGGSKLEIK	8.26
ch7F10嵌合抗体 (antibody, human IgG4, V domains shown) VH: EVKLMESGAELVKPGASVKLSCKVSGVNIKDDYMHWVKQRTEQGLEWIGRIDPEDVETKYDPKFQGKATITSDTSSNTGYLQLSSLTSEDTAVYYCARSFYSNYVNYFDQWGQGTTLTVSS VL: DIVMTQAPKSMSMSVGERVTLSCKASENVGTYVSWFQQKPEQSPKLLIYGASNRYTGVPDRFTGSGSATDFTLTISSVQAEDLADYHCGQSYSYPYTFGGGTKLEIK	9.93
ch10B4嵌合抗体 (antibody, human IgG4, V domains shown) VH: EVQLQQSGAELARPGASVKLSCKASGYSFTNYGISWMKQRTGQGLEWIGEIYPRGGNTYYNGKFKGKATLTADQSSSTAYMELRSLTSEDSAVYFCARRAFYYFGSNYYAMDYWGQGTSVTVSS VL: DVVMTQTPLFLPVSLGDQASISCRSSQSIVHSNGDTYLEWYLQKPGQSPKLLIYKVSNRFSGVPDRFSGSGSGTDFTLKISRVEAEDLGVYYCFQGSHVPWTFGGGTKLAIK	10.05
ch7C5嵌合抗体 (antibody, V domains shown) VH: EVQLQQSGAELARPGASVKLSCKASGYTFTSYGISWVKQRTGQGLEWIGEIYPRSDNTYYNGKFKGKATLTADKSSSTAYMELRSLTSEDSAVFFCARRAFYYYGSNYYAMDYWGQGTSVTVSS VL: DVLMTQTPLFLPVSLGDQASISCRSSQSIVHSNGDTYLEWYLRKPGQSPKLLIFKVSNRFSGVPDRFSGSGSGTDFTLKISRVEAEDLGVYYCFQGSHVPWTFGGGTKLEIK	9.44
